# testedTarget: T1, Suc-AAPD-pNA
# T1 chain: AAPD
# reportedConditions: scale: relative to the substrate with the highest activity
measuredProperty: relative activity (initial increase in OD405)
Give bare numbers.

Trypsin from Fusarium oxysporum (protein) IVGGTSASAGDFPFIVSISRNGGPWCGGSLLNANTVLTAAHCVSGYAQSGFQIRAGSLSRTSGGITSSLSSVRVHPSYSGNNNDLAILKLSTSIPSGGNIGYARLAASGSDPVAGSSATVAGWGATSEGGSSTPVNLLKVTVPIVSRATCRAQYGTSAITNQMFCAGVSSGGKDSCQGDSGGPIVDSSNTLIGAVSWGNGCARPNYSGVYASVGALRSFIDTYA : 0
Lysyl endopeptidase from Achromobacter lyticus (protein) GVSGSCNIDVVCPEGDGRRDIIRAVGAYSKSGTLACTGSLVNNTANDRKMYFLTAHHCGMGTASTAASIVVYWNYQNSTCRAPNTPASGANGDGSMSQTQSGSTVKATYATSDFTLLELNNAANPAFNLFWAGWDRRDQNYPGAIAIHHPNVAEKRISNSTSPTSFVAWGGGAGTTHLNVQWQPSGGVTEPGSSGSPIYSPEKRVLGQLHGGPSSCSATGTNRSDQYGRVFTSWTGGGAAASRLSDWLDPASTGAQFIDGLDSGGGTP : 0.0006

Using the record for Glutamyl endopeptidase blaSE from Bacillus licheniformis (protein) SVIGSDDRTRVTNTTAYPYRAIVHISSSIGSCTGWMIGPKTVATAGHCIYDTSSGSFAGTATVSPGRNGTSYPYGSVKSTRYFIPSGWRSGNTNYDYGAIELSEPIGNTVGYFGYSYTTSSLVGTTVTISGYPGDKTAGTQWQHSGPIAISETYKLQYAMDTYGGQSGSPVFEQSSSRTNCSGPCSLAVHTNGVYGGSSYNRGTRITKEVFDNLTNWKNSAQ , report its relative activity (initial increase in OD405).
0.002
